# Test target: Kynurenine/alpha-aminoadipate aminotransferase, mitochondrial (Homo sapiens, UniProt Q8N5Z0)
# Sequence (Q8N5Z0 whole entry): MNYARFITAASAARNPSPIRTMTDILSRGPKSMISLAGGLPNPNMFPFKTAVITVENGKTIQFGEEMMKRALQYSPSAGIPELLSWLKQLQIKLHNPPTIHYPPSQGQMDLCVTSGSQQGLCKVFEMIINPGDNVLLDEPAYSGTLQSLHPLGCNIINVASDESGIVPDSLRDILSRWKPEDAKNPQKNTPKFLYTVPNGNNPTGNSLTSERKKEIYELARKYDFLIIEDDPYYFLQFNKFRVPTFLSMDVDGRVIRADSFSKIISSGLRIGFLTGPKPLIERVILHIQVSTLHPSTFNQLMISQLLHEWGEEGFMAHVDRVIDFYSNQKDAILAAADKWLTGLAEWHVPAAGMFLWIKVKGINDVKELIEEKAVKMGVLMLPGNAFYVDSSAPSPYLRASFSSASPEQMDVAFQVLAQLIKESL
Measured quantity: IC50 (nM)
Return type: number; implicit unit nM.

The molecule NC1Cc2nn(-c3ccccc3)cc2N(O)C1=O (stereo unspecified) showed IC50 equal to 85
